# Test system: LOX IMVI melanoma
# assay.name: NCI tumour cell line growth inhibition, 48 h
Please provide measured TGI for the entries that follow.
Answers are plain numbers, in µM.

Value sought for every listed compound: TGI.
1. CS(=O)(=O)OCC1CN(S(C)(=O)=O)c2cc(O)ccc21 (stereo not given)
2. COc1ccc(C(=O)/C=C/c2ccc(O)c(O)c2)c(OC)c1
3. COc1c(Br)cc2c(c1OC)C(Br)CCC(Br)(Br)C2=O (stereo not given)
4. COC1/C=C/C(C)C(C(C)C(OC)C(C)CCC(=O)C(C)C(C/C=C/N(C)C=O)OC)OC(=O)C=CC2OC2(C)CC(OC)C(OC)C2=CC(=O)O[C@@H](C(C)C(OC)CC(OC)/C=C/C(C)C(O)C1)[C@H]2O (stereo not given in full)
5. O=C1/C(=C/c2ccccc2[N+](=O)[O-])Cc2ccccc21

Response line:
1. 13.3
2. 26.4
3. 1.58
4. 0.00617
5. 4.39

---

# Tested on: LOX IMVI melanoma
# assay.name: NCI tumour cell line growth inhibition, 48 h
Please provide measured TGI for the entries that follow.

Solved cases below.
compound	result
CCCN(CCS(C)(=O)=O)Cc1ccc(-c2ccc3ncnc(Nc4ccc(OCc5cccc(F)c5)c(Cl)c4)c3c2)o1	> 25 µM
CO/N=C(\COc1ccc2c(c1)[nH]c1ccccc12)c1ccc(F)cc1	> 100 µM
O=c1[nH]c(=O)n(C2CC(O)C(COP(=O)(OCc3ccc([N+](=O)[O-])o3)N(CCCCCl)CC(O)CO)O2)cc1F (stereo not given)	> 100 µM
O=c1[nH]cc(COCCCO)c(=O)[nH]1	> 100 µM

# next compound below
Prompt line: Look up TGI for this compound: O=C1NC(=O)C2C(=O)NC(=O)C1C2c1c(Cl)cccc1Cl (stereo not given)
Response line: > 57.4 µM

Numbers sourced from PubChem BioAssay (NCI).
